- System: UACC-257 melanoma
- protocol.summary: NCI-60 one-dose screen, 48 h
- run.conditions: 10 µM
The panel holds about 83,000 compounds, 20% with a hit somewhere; the sample as a whole holds those more often. Calls of active or inactive are those of the source. How the source made its calls: active means growth percent below 10; inactive means the rest.
Possible outcomes: active, inactive

>  <molecule>
Oc1ccc(N=Cc2ccccc2)cc1

>  <answer.label>
inactive

$$$$
>  <molecule>
Cc1cccc(NC(=O)c2sc3nc4c(cc3c2N)CCC4)c1C

>  <answer.label>
inactive

$$$$
>  <molecule>
COc1ccc(OC)c(-c2ccc(-c3ccccc3N)c3[nH]c4ccccc4c23)c1

>  <answer.label>
inactive

$$$$
>  <molecule>
Cc1nc2sccn2c1-c1csc(Nc2ccccc2Cl)n1

>  <answer.label>
inactive

$$$$
>  <molecule>
CN(C)c1ccc(C2CC(c3ccccc3)=NN2/C=C2\SC(=O)NC2=O)cc1 (stereo not given)

>  <answer.label>
inactive

$$$$
>  <molecule>
COc1ccccc1CNCCCN1C(=O)c2ccc3c4c(ccc(c24)C1=O)C(=O)N(CCCNCCCCNCCCCN)C3=O

>  <answer.label>
active

$$$$
>  <molecule>
CCC(=O)Oc1cc(/C=C/C(=O)O[C@H]2C[C@H]3CN4CCc5c([nH]c6cc(OC)ccc56)[C@@H]4C[C@@H]3[C@@H](C(=O)OC)[C@@H]2OC)ccc1OC

>  <answer.label>
inactive

$$$$
>  <molecule>
COc1cc(Cn2c(SCC(=O)Nc3cc(OC)c(OC)c(OC)c3)nc3ccccc3c2=O)cc(OC)c1OC

>  <answer.label>
inactive

$$$$
>  <molecule>
CCCCCCCCCCCCOB(OCCCCCCCCCCCC)OCCCCCCCCCCCC

>  <answer.label>
inactive

$$$$
>  <molecule>
CCC1CCc2nc3sc(C(=O)Nc4ccccc4C)c(N)c3cc2C1 (stereo not given)

>  <answer.label>
inactive

$$$$
>  <molecule>
COc1ccc(C(=O)c2cc(OC)c(OC)c(OC)c2)cc1/C=C/C(=O)c1ccc(OC)c(OC)c1

>  <answer.label>
inactive

$$$$
>  <molecule>
Nc1c(C(=O)c2ccc(F)cc2)sc2nc3c(cc12)CCCC3

>  <answer.label>
inactive

$$$$
>  <molecule>
COc1ccc(-c2nc(-c3nc4ccc(F)cc4[nH]3)cc3c2[nH]c2ccccc23)cc1

>  <answer.label>
active

$$$$
>  <molecule>
O=c1oc2cc(OS(=O)(=O)c3ccccc3)c(Cl)cc2c2c1CCCCCC2

>  <answer.label>
inactive

$$$$
>  <molecule>
O=C(O)c1cn(C2CC2)c2cc(N3CCN(S(=O)(=O)c4ccc(Cl)c(Cl)c4)CC3)c(F)cc2c1=O

>  <answer.label>
active

$$$$
>  <molecule>
FC(F)(F)c1cccc(-n2nnc3cnc(Nc4ccc(N5CCCCC5)cc4)nc32)c1

>  <answer.label>
inactive

$$$$
>  <molecule>
COc1cc2nc(SCc3cc(OC)c(OC)c(OC)c3)n(Cc3ccccc3)c(=O)c2cc1OC

>  <answer.label>
inactive

$$$$
>  <molecule>
CCN(C(=O)c1cc2ccccc2[nH]1)[C@H]1CCC[C@@H](NCc2ccc(OC)cc2)C1

>  <answer.label>
inactive

$$$$
>  <molecule>
CCOC(=O)C(Cc1ccccc1)n1c(O)c(C=Nc2ccc(C(=O)OCCN(CC)CC)cc2)sc1=O (stereo not given)

>  <answer.label>
inactive

$$$$
>  <molecule>
O=C(Nc1ccc(OCc2nnc(-c3ccc(Cl)cc3)o2)c(F)c1)Nc1ccc(Cl)c(Cl)c1

>  <answer.label>
inactive

$$$$
>  <molecule>
Cc1cc(C)c(S(=O)(=O)N2CCN(c3cc4c(cc3F)c(=O)c(C(=O)O)cn4C3CC3)CC2)c(C)c1

>  <answer.label>
inactive

$$$$
>  <molecule>
CN=S(=O)(NC(=O)c1ccc(Cl)cc1Cl)c1ccc(Br)s1 (stereo not given)

>  <answer.label>
inactive

$$$$
>  <molecule>
O=C(CCCn1c2c(sc3ccccc32)c(=O)n2nnc(-c3ccccc3)c12)NCCc1cnc[nH]1

>  <answer.label>
active

$$$$
>  <molecule>
CC(=O)Nc1ccc(S(=O)(=O)N2C(=O)CCC2C(=O)Nc2ccccc2)cc1 (stereo not given)

>  <answer.label>
inactive

$$$$
>  <molecule>
CCN(CC)c1cc(/C=C/c2ccc(OC)c(OC)c2)nc2cc(F)c(F)cc12

>  <answer.label>
inactive

$$$$
>  <molecule>
O=C(/C=C/c1ccccc1)n1c(-c2ccc(Cl)cc2)nc2ccccc21

>  <answer.label>
active

$$$$
>  <molecule>
N=C(N)c1ccc(-c2ccc(-c3ccc(Cl)cc3)o2)nc1

>  <answer.label>
active

$$$$
>  <molecule>
COc1ccc(/C=C2\CCCC3=C2NC(C)=NC3c2ccc(OC)c(OC)c2)cc1OC (stereo not given)

>  <answer.label>
inactive

$$$$
>  <molecule>
COc1ccc(/C=C\c2cc(OC)c(OC)c(OC)c2)c(NS(=O)(=O)c2ccc(C(C)(C)C)cc2)c1O

>  <answer.label>
inactive

$$$$
>  <molecule>
c1ccc2nc(-c3ccc4ccccc4n3)ccc2c1

>  <answer.label>
inactive

$$$$
>  <molecule>
COc1ccc(C2CC(c3cccs3)=NN2c2ccc(S(=O)(=O)NC(=O)NCc3cccc(OC)c3)cc2)cc1 (stereo not given)

>  <answer.label>
inactive

$$$$
>  <molecule>
COc1ccc(C(=O)/C=C/c2ccc(/C=C/c3cc(OC)c(OC)c(OC)c3)cc2)cc1

>  <answer.label>
inactive

$$$$
>  <molecule>
O=S(=O)(c1ccccc1)n1ccc(-c2ccc3c(c2)CCO3)n1

>  <answer.label>
inactive

$$$$
>  <molecule>
Clc1ccc(-c2nc(-c3ccco3)cn3ccnc23)cc1

>  <answer.label>
inactive

$$$$
>  <molecule>
c1ccn2nnnc2c1

>  <answer.label>
inactive

$$$$
>  <molecule>
CCn1cc(C(=O)O)c(=O)c2cc(F)c(N3CCN(S(=O)(=O)c4cccc5ccccc45)CC3)cc21

>  <answer.label>
inactive

$$$$
>  <molecule>
CCCCCC(=O)OCc1ccccc1

>  <answer.label>
inactive

$$$$
>  <molecule>
COc1ccc([N+](=O)[O-])c(/C=C/C(=O)c2ccccn2)c1

>  <answer.label>
inactive

$$$$
>  <molecule>
CC(C)(C)c1ccc(S(=O)(=O)Oc2ccc3c4c(c(=O)oc3c2)CCCCC4)cc1

>  <answer.label>
inactive

$$$$
>  <molecule>
CN(C)c1ccc(-c2ccc(-c3ccc(C(=N)N)cn3)o2)cc1

>  <answer.label>
active

$$$$
